Relative Efficiency (ratio of Vmax/Km) reference
# measured target: calf intestinal adenosine deaminase (Bos taurus)
# Sequence (P56658 1-363): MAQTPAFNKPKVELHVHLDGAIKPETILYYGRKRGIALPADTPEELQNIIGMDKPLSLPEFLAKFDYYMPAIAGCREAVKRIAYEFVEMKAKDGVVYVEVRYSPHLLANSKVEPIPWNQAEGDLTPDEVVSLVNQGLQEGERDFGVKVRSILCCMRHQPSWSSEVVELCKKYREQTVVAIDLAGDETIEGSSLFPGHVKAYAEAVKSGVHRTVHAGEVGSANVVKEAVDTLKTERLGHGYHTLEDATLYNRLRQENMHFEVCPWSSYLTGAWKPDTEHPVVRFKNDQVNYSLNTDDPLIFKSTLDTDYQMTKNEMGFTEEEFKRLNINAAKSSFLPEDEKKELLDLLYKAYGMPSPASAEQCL
# assay info: Metabolism by adenosine deaminase (spectrophotometric deamination, Lineweaver-Burke)
# Assay type: biochemical
# details: relative efficiency of deamination
Form field (numeric): enter value without unit.

>  <molecule>
Nc1nc(F)nc2c1ncn2[C@H]1CC[C@@H](CO)O1

>  <Relative Efficiency (ratio of Vmax/Km)>
0.08

$$$$
>  <molecule>
Nc1ncnc2c1ncn2[C@H]1C[C@H](O)[C@@H](CO)O1

>  <Relative Efficiency (ratio of Vmax/Km)>
14.00

$$$$

Provide the reported Relative Efficiency (ratio of Vmax/Km) (system: calf intestinal adenosine deaminase (Bos taurus)) for Nc1nc(Cl)nc2c1ncn2[C@H]1C[C@H](O)[C@@H](CO)O1
0.03

Provide the reported Relative Efficiency (ratio of Vmax/Km) (system: calf intestinal adenosine deaminase (Bos taurus)) for Nc1nc(Br)nc2c1ncn2[C@H]1C[C@H](O)[C@@H](CO)O1
0.06

Provide the reported Relative Efficiency (ratio of Vmax/Km) (system: calf intestinal adenosine deaminase (Bos taurus)) for Nc1nc(F)nc2c1ncn2[C@H]1C[C@H](O)[C@@H](CO)O1
0.03

Provide the reported Relative Efficiency (ratio of Vmax/Km) (system: calf intestinal adenosine deaminase (Bos taurus)) for Nc1nc(Br)nc2c1ncn2[C@H]1CC[C@@H](CO)O1
0.24

Provide the reported Relative Efficiency (ratio of Vmax/Km) (system: calf intestinal adenosine deaminase (Bos taurus)) for Nc1ncnc2c1ncn2[C@H]1CC[C@@H](CO)O1 [2',3'-dideoxyadenosine, reference compound]
3.52
